Entries and their measured TGI follow.
# System: NCI-H23 lung
# Test: NCI tumour cell line growth inhibition, 48 h

Recorded TGI, per entry:
Molecule: C[C@@H](C1CCC2C3C(=CC(=O)[C@@]21C)[C@H](C)[C@]1(CCC(=O)O1)C1OC31)[C@H]1C[C@]2(C)O[C@@](C)(O1)OC2(C)C (stereo not given in full)
Target or test system: NCI-H23 lung
TGI: > 100 µM

Molecule: O=C(CCN1CCOCC1)Nc1ccc(F)cc1F
Target or test system: NCI-H23 lung
TGI: > 100 µM

Molecule: O=C1c2ccccc2C(=O)C2C1C1C(=O)c3ccccc3C(=O)C21 (stereo not given)
Target or test system: NCI-H23 lung
TGI: > 100 µM

Record summary for CCC(C)C(C(=O)N/N=C1/SCC(=O)N1C)C(=O)N/N=C1/SCC(=O)N1C (stereo not given) : reported TGI = > 100 µM

Cc1nc2ccccc2c(=O)n1-c1n[nH]c2ccccc12 yielded TGI of > 100 µM

###

# System: HCT-15 colon
# Test: NCI tumour cell line growth inhibition, 48 h
Value kind: TGI

In the examples that follow, each entry is paired with its recorded TGI.
Compound: O=C(O)c1nc2cc(C(F)(F)F)ccc2nc1Nc1ccc(Cl)c(Cl)c1
Target or test system: HCT-15 colon
Reading: 24.8 µM

Compound: Cc1cccc(-n2c(C)nc3ccc(NC4OC(CO)C(O)C(O)C4O)cc3c2=O)c1 (centres undefined)
Target or test system: HCT-15 colon
Reading: > 100 µM

Compound: CC1=CCC2(C#N)CCC1C2O (centres undefined)
Target or test system: HCT-15 colon
Reading: > 100 µM

Compound: Cn1c(NN)nc(-c2ccc([N+](=O)[O-])cc2)c(C#N)c1=O
Target or test system: HCT-15 colon
Reading: 42.4 µM

Compound: CC(C)(C)N/N=C(\Cc1occc(=O)c1O)C(=O)Nc1ccc([N+](=O)[O-])cc1[N+](=O)[O-]
Target or test system: HCT-15 colon
Reading: > 100 µM

Sample COC(=O)CCC1(C)C2CCC1(C)/C(=N/O)C2 (centres undefined) ; TGI observed: > 100 µM

Record O=C1c2ccccc2C(=O)C2C1C1C(=O)c3ccccc3C(=O)C21 (centres undefined) , field TGI: > 100 µM

Per the record, COc1ccc(OC)c([N+](=O)[O-])c1-c1nc2sccn2c1/C=N/N=C(N)N has TGI of > 100 µM

###

# System: K-562 leukemia
# Test: NCI tumour cell line growth inhibition, 48 h
Value kind: TGI

Molecule: C=CCC1C(=O)C(C(=O)OC)N2CCc3c([nH]c4ccccc34)C12 (stereo unspecified)
Value kind: TGI
Reading: > 100 µM

Given item Cc1nc(Cl)c2sc(=S)n(-c3ccc(F)cc3)c2n1 , the value recorded as its TGI is > 100 µM

Briefly, TGI measured for O=C(CBr)N1CCC2(CC1)SSC1(CCN(C(=O)CBr)CC1)S2 : > 100 µM

So for COC(=O)C1CC(=O)CCC1c1ccccc1 (stereo unspecified) , the logged TGI turned out to be > 100 µM

Record summary for CCCCSN1C(=O)c2ccccc2C1=S : reported TGI = 69.5 µM

Measured TGI, Cc1cc(C)nc(NS(=O)(=O)c2ccc(NN=c3c4ccccc4n(C)c4ccccc34)cc2)n1 : 66.2 µM
